- test_name: EBV LMP1-driven NF-kappaB luciferase reporter inhibitors, primary screen, cell-based, luminescence, single point (AID 504558);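 also: 0% = neutral control wells and 100% = reference inhibitor control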
- condition_parameters: LMP1-induced NF-kappaB luciferase reporter cells, at 12.5 µM, hits give high values
In all, about 350,000 compounds went through this assay and about 2,400 (0.69%) were called active. Shown is part of a subset that was picked to be rich in actives.
value_type: inhibition (%)
Report the figure in % without appending any unit label.

What value of inhibition has been reported for the following molecule? `Nc1cccc(OCCCCCOc2cccc(N)c2)c1`
-19.1

// inhibition lookup, key: `COC(=O)c1ccc(NCc2cc(O)ccc2O)cc1`
-94.1

Form field: reported inhibition of `NC1=CC(=O)C(=O)c2cccnc21`
12.1

Look up inhibition for this molecule: CCCCCCCCCCOC(=O)C[N+](C)(C)CC1CCCCC1O (stereo unspecified)
51

Requested read-out: inhibition. Entry: CCCCCOC(=O)c1ccc(N2C(=O)C3C4C=CC(C4)C3C2=O)cc1 (stereo unspecified)
0.71

Consider the molecule shown here: `O=c1[nH]c2ccccc2n1C1CCN(CCOc2ccccc2)CC1` What is its recorded inhibition?
5.46

* * *

- test_name: EBV LMP1-driven NF-kappaB luciferase reporter inhibitors, primary screen, cell-based, luminescence, single point (AID 504558);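 also: 0% = neutral control wells and 100% = reference inhibitor control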
- condition_parameters: LMP1-induced NF-kappaB luciferase reporter cells, at 12.5 µM, hits give high values
In all, about 350,000 compounds went through this assay and about 2,400 (0.69%) were called active. This excerpt belongs to a sample that is enriched for actives.
Give inhibition for every item shown.
Reply with just the number (in %).

Given `COc1ccc(C(C)(C)C)cc1NC(=O)CN(C)C1=NS(=O)(=O)c2ccccc21` , state its recorded inhibition.
-11.2

Value lookup for inhibition; key = `NC(=O)C1(Nc2ccc(-c3ccccc3)cc2)CCCC1`
0.238

// returns reported inhibition for input `CN(C)CCCN(C(=O)c1ccc(S(=O)(=O)N2CCCc3ccccc32)cc1)c1nc2ccc(F)cc2s1`
-4.71

Please look up its inhibition: `NC(=O)C1(Nc2ccc([N+](=O)[O-])cc2)CCCC1`
58.8

Would you mind telling me what inhibition value was observed for `N=C1C(c2nc3ccccc3s2)=C(O)CN1NC(=O)c1ccc([N+](=O)[O-])cc1` ?
-6.15

* * *

Assign inhibition to each entry below.
- test_name: EBV LMP1-driven NF-kappaB luciferase reporter inhibitors, primary screen, cell-based, luminescence, single point (AID 504558);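 also: 0% = neutral control wells and 100% = reference inhibitor control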
- condition_parameters: LMP1-induced NF-kappaB luciferase reporter cells, at 12.5 µM, hits give high values
The campaign covered roughly 350,000 compounds. About 2,400 (0.69%) were called active. The full list was thinned out, with actives kept by preference.
Reply numerically in %, unit not repeated.

What value of inhibition has been reported for the following compound? CCN(CC)C(=O)C1=C(C)N(Cc2ccc(OC)cc2)C(=O)C(CC(=O)NCCCCc2ccccc2)C1 (centres undefined)
-3.18

Would you mind telling me what inhibition value was observed for `CCOc1cc(/C=N/NC(=O)c2c(C)nc3ccc(Cl)cn23)ccc1O` ?
-8.3

// query inhibition value for entry `CSc1ncnc2c1ncn2CCCNCC1CCCCC1`
3.66

Please report the recorded inhibition for CC1CC(NC(=S)N(C)C)CC(C)(C)C1 (centres undefined) .
-2.42

Report inhibition for `O=C(COC(=O)c1ccccc1C(=O)N1CCN(c2ccccc2)CC1)NCc1ccccc1` please.
-5.9

Please look up its inhibition: CCN(CC)C(=O)C(C)N1c2cccc3cccc(c23)S1(=O)=O (centres undefined)
11.1

Give the measured inhibition of Cc1ccc(-c2ccc(CN3C(C(C)C)C(=O)N(Cc4cn(CCC5OCCCO5)nn4)CCS3(=O)=O)cc2)cc1 (centres undefined) .
3.16

inhibition lookup needed for `CCOC(=O)c1c(C)[nH]c(C)c1S(=O)(=O)NCCCc1ccco1` , thanks.
-0.931

Which value of inhibition has been reported for `C=CCn1c(C)cc(C2=NNC(=NCC)SC2)c1C` in the records?
86.2

So what's the measured inhibition for this one? `CCOC(=O)c1c(C)[nH]c2c1-c1ccccc1C(=O)C2=O`
92.7

Any idea what inhibition was measured for `CCn1c(/C=N/NC(=O)c2ccc(OC)cc2)nc2ccccc21` ?
4.88

Look up inhibition for this compound: `Cc1sc2nc(-c3ccccc3F)oc(=O)c2c1C`
1.32

Given `COc1cc2nnn(-c3ccncc3)c2cc1OC` , state its recorded inhibition.
-4.43

Give the measured inhibition of `Cc1cc(C)c2cc(C#N)c(N3CCNCC3)nc2c1` .
-5.81

# query: inhibition of entry `C[C@@H]1CN([C@@H](C)CO)C(=O)c2cc(NS(C)(=O)=O)ccc2O[C@@H](C)CCCCO[C@H]1CN(C)C(=O)Nc1ccc2c(c1)OCO2`
-2.68

Fill in the blank: the reported inhibition of CC(OC(=O)c1ccc(NC(=O)CC#N)cc1)C(=O)Nc1ccc(S(=O)(=O)N2CCCC2)cc1 (centres undefined) is ____.
-2.22

What value of measured inhibition is listed for CC(=O)N1c2ccc(S(=O)(=O)N3CCC(C(=O)N4CCN(c5ccccc5)CC4)CC3)cc2CC1C (centres undefined) ?
4.09

Would you kindly share the measured inhibition for `CC(C)[C@H](NC(=O)c1ccccc1F)C(=O)Nc1cccc(S(=O)(=O)N2CCOCC2)c1` ?
-8.03

Consider the compound CC1C(=O)N(Cc2cn(Cc3ccco3)nn2)CCS(=O)(=O)N1Cc1ccc(-c2cccc(CO)c2)cc1 (centres undefined) and give its measured inhibition.
4.76

Fill in: inhibition of `COc1cccc(/C=N/NC(=O)c2[nH]nc3c2CCc2ccccc2-3)c1O` is ___
69.4

For the compound shown here, `CC1(C)CC(=O)C=C(N2CCOCC2)C1` , give the reported inhibition.
7.14

Find the recorded inhibition belonging to `O=NN(CCCl)C(=O)NCCc1cccc[n+]1[O-]` and report it.
1.36

Value lookup for inhibition; key = `Oc1ccc(N2CCN(C(=S)NCc3ccccc3)CC2)cc1`
50.7

Which inhibition is listed for `O=C(c1ccc(N2CCCC2=O)cc1)N1CCN(c2ccc(C(F)(F)F)cc2[N+](=O)[O-])CC1` ?
5.85

Requested read-out: inhibition. Entry: `C[C@@H]1CN([C@@H](C)CO)C(=O)c2cc(Br)cnc2O[C@@H]1CN(C)C(=O)C1CCCCC1`
-0.141

Suppose we examine the compound OC(COc1ccc2c(c1)CCC2)CN1CCN(c2cccc(Cl)c2)CC1 (centres undefined) ; what inhibition value has been reported?
-1.09

Given the entry CC(C)N=C1CCCC1C(=S)SSC(=S)C1CCCC1=NC(C)C (centres undefined) , report its measured inhibition.
24.4

Entry `O=C(Cn1ccc([N+](=O)[O-])n1)NCc1cccs1` : reported inhibition = ?
-5.11

Item `CC(C)n1ncc2c(C(=O)N3CCN(Cc4cccs4)CC3)cc(C3CC3)nc21` has what recorded inhibition?
-5.29

Query (compound): CCCCN(C(C)=O)c1ccc2c(c1)C1CC2CCN1Cc1ccccc1 (centres undefined) ; field requested: inhibition
2.88

// returns reported inhibition for input `Cc1ccnc(NC(=O)Cn2ccc([N+](=O)[O-])n2)c1`
53.9

Consider the compound shown here: `COc1ccc(C(=O)OCC(=O)Nc2cc(C)on2)cc1F` What is its recorded inhibition?
-6.31

Which value of inhibition has been reported for `CCOc1cc2ccccc2cc1C(=O)Nc1ccccn1` in the records?
-13.7

Requested field: inhibition. Item: `CC(=O)Nc1ccc2c3c(ccc([N+](=O)[O-])c13)CC2`
3.38

Query: inhibition; subject: `Cc1nc(N)nc(SCc2ccc([N+](=O)[O-])cc2)c1N`
50.3

Tell me the measured inhibition of `Cc1cc(N/C=C\C(=O)c2ccc(Cl)c(Cl)c2)no1` , please.
-16.1

Quick one: inhibition for `COc1cccc(OC)c1C(=O)N1CCN(Cc2ccccc2F)CC1` ?
2.93

Recorded inhibition for `O=C(Cc1ccc([N+](=O)[O-])cc1)NCCS(=O)(=O)N1CCN(c2ccccc2)CC1` , please?
-3.09

Reported inhibition, compound `CC1CCN(C(=O)CSc2nnc(-c3ccco3)n2N)CC1` : ____
-6.21

Quick check: inhibition of COCCCN1C(=O)C(CC(=O)NCc2cccs2)CC(C(=O)N2CCOCC2)=C1C (centres undefined) ?
-3.59

May I ask what inhibition has been recorded for `O=S1(=O)CCN(C2CCCCCCCCCCC2)CC1` ?
3.93

Consider the compound `COc1ccc(/C=C2\CCc3ccccc3C2=O)c(OC)c1OC` and give its measured inhibition.
-2.98

Which inhibition is reported for this compound? `Cc1cc(Nc2ccc(C)c(C)c2)n2ncnc2n1`
8.05

Can you share its inhibition? I mean this compound: `O=C(O)C1=C(C(=O)O)C2CCC1C2`
-22.4

* * *

- test_name: EBV LMP1-driven NF-kappaB luciferase reporter inhibitors, primary screen, cell-based, luminescence, single point (AID 504558);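 also: 0% = neutral control wells and 100% = reference inhibitor control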
- condition_parameters: LMP1-induced NF-kappaB luciferase reporter cells, at 12.5 µM
Screen size: about 350,000 compounds; about 2,400 (0.69%) were called active. Cut-off read from the data, not from the text of the source: active = inhibition above about 41%; inconclusive = no clear call, values can overlap the other calls; inactive = below that. The list comes from a sample in which actives are over-represented; it also holds close analogues and randomly drawn compounds.
Hi there, use one of these labels in your reply, thanks! 1.0 (active), 0.0 (inactive)

Which outcome was assigned to `O=C(OC12CC3CC(CC(C3)C1)C2)c1ccc(NCc2cc(O)ccc2O)cc1` in this test?
1.0

Please indicate how the test categorized `CC(=O)Nc1c(-c2ccc(C)cc2)nc2ccc(Cl)cn12` .
0.0

Just curious, what result did `Cc1ccc(CS(=O)(=O)c2ncc(Cl)c(C(=O)Nc3nnc(C)s3)n2)cc1` get here?
1.0

What call does the record list for `CSc1nnc(NC(=O)c2nc(S(=O)(=O)Cc3ccc(C)cc3)ncc2Cl)s1` ?
0.0
